meta.source: paper PMC5915154

Tested on: drug-sensitive CCRF-CEM leukemia cells
experiment: Resazurin reduction assay, CCRF-CEM
Format: cell-based
setup_conditions: Homo sapiens, 72 h
Description: The cell lines used in the present work, their origins and maintenance conditions were previously reported. […] Resazurin reduction assay was conducted to test the cytotoxicity of the compounds. […] After 72 h incubation and addition of resazurin (Sigma-Aldrich) for 4 h, staining was measured by an Infinite M2000 ProTM plate reader (Tecan, Germany) using an excitation wavelength of 544 nm and an emission wavelength of 590 nm. […]
observed_property: IC50 (µM)
Respond with the bare value in µM.

Recorded IC50, per entry:
O=C(O)c1cc(O)c2c(c1)C(=O)c1cccc(O)c1C2=O ... 34.4
O=C1c2cccc(O)c2C(=O)c2c(O)cc(CO)cc21 ... 9.87
COc1cc(O)c2c(c1)C(=O)c1cc(C)cc(O)c1C2=O ... 124
Cc1cc(O)c2c(c1)C(=O)c1cc(O)cc(O)c1C2=O ... 35.6

Shifting focus to the molecule that follows.
Measured IC50 of COc1cccc2c1C(=O)c1c(O)c3c(c(O)c1C2=O)C[C@@](O)(C(=O)CO)C[C@@H]3O[C@H]1C[C@H](N)[C@H](O)[C@H](C)O1 [doxorubicin, Doxorubicin, reference compound] : 0.0007
